- system_under_test: Pantothenate synthetase (Mycobacterium tuberculosis (strain ATCC 25618 / H37Rv)) (UniProt P9WIL5)
- Sequence (P9WIL5 whole entry, looked up): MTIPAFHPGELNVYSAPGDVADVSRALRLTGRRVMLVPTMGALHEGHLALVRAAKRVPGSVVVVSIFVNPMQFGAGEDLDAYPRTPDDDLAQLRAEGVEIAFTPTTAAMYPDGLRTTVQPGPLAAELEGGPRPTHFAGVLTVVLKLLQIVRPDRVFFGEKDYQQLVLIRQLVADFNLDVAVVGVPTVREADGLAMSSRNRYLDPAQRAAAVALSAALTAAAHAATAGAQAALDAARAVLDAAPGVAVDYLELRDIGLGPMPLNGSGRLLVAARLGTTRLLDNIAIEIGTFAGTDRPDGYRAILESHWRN
- test_description: Coupled enzyme confirmation of inhibitors against recombinant Mtb PanC (AID 375);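 also: 0% = full reaction with vehicle and 100% = no enzyme background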
- test_context: coupled enzyme assay; at 10 µM, hits give high values
Please go through the items and note down their inhibition.
Entry rule: numbers only, all in %.

Need inhibition of N#CC(C(=O)Nc1ccccc1)=C1CCCCC1 , thanks.
7

Need inhibition of Cc1cc(NC(=O)CS(=O)(=O)c2cn(Cc3ccccc3Cl)c3ccccc23)no1 , thanks.
9

Need inhibition of N#Cc1nc(-c2ccco2)oc1NCCc1ccccc1 , thanks.
0

Need inhibition of COC(=O)c1cccc(Nc2cc(C)nc(-c3ccccc3O)n2)c1 , thanks.
1

Need inhibition of CCCN1Cc2cccc(C(=O)NCc3cccs3)c2C1=O , thanks.
0

Need inhibition of CCn1nc(NC(=O)c2cccnc2)c2cc3ccccc3nc21 , thanks.
0

Need inhibition of COC(=O)c1cc(Br)ccc1-c1ccc(/C=N/n2nnnc2N)o1 , thanks.
7

Need inhibition of COCCn1nnnc1C(c1cc2cc(C)cc(C)c2[nH]c1=O)N1CCN(c2ccccc2F)CC1 (stereo not given) , thanks.
2

Need inhibition of CCOC(=O)c1c(N)sc(C(=O)N2CCOCC2)c1C , thanks.
4

Need inhibition of Cc1ccc(OCCN2CCN(C(=O)CCC(=O)Nc3nnc(C)s3)CC2)cc1 , thanks.
1

Need inhibition of CCn1c(=O)cc(SCC(=O)NCCN2CCN(Cc3ccccc3)CC2)c2ccccc21 , thanks.
0

Need inhibition of CCOc1ccc(C(c2nnnn2Cc2ccccc2)N2CCN(C(=O)c3ccco3)CC2)cc1 (stereo not given) , thanks.
2

Need inhibition of Cc1nc2ccccc2c2oc(C(=O)NCC3COc4ccccc4O3)cc12 (stereo not given) , thanks.
0

Need inhibition of COc1ccc(CC(=O)Nc2c3c(nn2-c2cccc(Cl)c2)CS(=O)C3)cc1 (stereo not given) , thanks.
7

Need inhibition of COc1ccc(-n2c(Cc3cccn3C)nnc2SCC(=O)Nc2ccc(Cl)cc2)cc1 , thanks.
0

Need inhibition of c1ccc2ncc(-n3cnnn3)cc2c1 , thanks.
0

Need inhibition of COc1cccc(C2CC(c3ccc(F)cc3)Nc3nc(N)nn32)c1 (stereo not given) , thanks.
0

Need inhibition of CC12C(=O)N(CCC(=O)O)C(=O)C1C1C=CC2C1 (stereo not given) , thanks.
0

Need inhibition of c1ccc(-c2cc(-c3nc(-c4ccccn4)no3)c3ccccc3n2)cc1 , thanks.
0

Need inhibition of CC(=O)c1cccc(NC(=O)CCNS(=O)(=O)c2cccc3nsnc23)c1 , thanks.
0

Need inhibition of CN(CCNC(=O)c1ccc(N2CCCC2=O)cc1)CCc1ccccc1 , thanks.
0

Need inhibition of Cn1c(CN2CCOCC2)nc2cc(NC(=O)c3ccccc3Cl)ccc21 , thanks.
5

Need inhibition of CC1CCCN(C(=O)C23CCC(C)(C(=O)C2)C3(C)C)C1 (stereo not given) , thanks.
0

Need inhibition of Cc1cc(OCC(=O)N2CCOCC2)cc2oc(=O)c3ccccc3c12 , thanks.
0

Need inhibition of Cc1ncoc1C(=O)Nc1cccc(Cl)c1C , thanks.
1

Need inhibition of O=C(CSc1nnc(-c2cccs2)o1)NCC1CN(Cc2ccccc2)CCO1 (stereo not given) , thanks.
0

Need inhibition of CCc1ccccc1NC(=O)c1cnc2n(c1=O)CCS2 , thanks.
2

Need inhibition of O=C1NC(=O)C(CC(=O)N(Cc2ccco2)C2(C(=O)NC3CCCC3)CCCCC2)N1 (stereo not given) , thanks.
0

Need inhibition of Cc1cc(OC(=O)N2CCOCC2)cc(C)c1Cl , thanks.
0

Need inhibition of CN(C)CCCC1(c2ccc(F)cc2)OCc2cc(C#N)ccc21 (stereo not given) , thanks.
0

Need inhibition of CCCCNC(=O)c1nc2ncc(Br)cn2n1 , thanks.
2

Need inhibition of CCC(=O)Oc1ccc(C(CC)C(CC)c2ccc(OC(=O)CC)cc2)cc1 (stereo not given) , thanks.
0

Need inhibition of COC(=O)CCCCC(=O)C1C(=O)CC(C)(C)C(C(=O)OC)C1=O (stereo not given) , thanks.
0

Need inhibition of CCOC(=O)c1c(C)[nH]c(C(=O)COC(=O)C2CC2C)c1C (stereo not given) , thanks.
0

Need inhibition of N#CC(C(=O)c1ccco1)c1ccccn1 (stereo not given) , thanks.
3

###

- system_under_test: Pantothenate synthetase (Mycobacterium tuberculosis (strain ATCC 25618 / H37Rv))
- test_description: Coupled enzyme confirmation of inhibitors against recombinant Mtb PanC (AID 375);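 also: 0% = full reaction with vehicle and 100% = no enzyme background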
- test_context: coupled enzyme assay; at 10 µM, hits give high values
Lab note: compare inhibition against 1%. Equal or greater, write fulfilled. Smaller, write not fulfilled.

Reported inhibition at or above 1%? Cc1ccccc1-c1noc(N)c1C#N
not fulfilled

Reported inhibition at or above 1%? CCC(=O)NC1(C(F)(F)F)C(=O)NC(C)=C1C#N (stereo unspecified)
fulfilled

Reported inhibition at or above 1%? O=C(Nc1ccon1)c1cc(-c2ccccc2)nc2ccccc12
not fulfilled

Reported inhibition at or above 1%? C=CCN(CC=C)C(=O)Nc1cc(Cl)ccc1OC
not fulfilled

Reported inhibition at or above 1%? Cc1cc(C)n(-c2ccc(C(=O)Nc3ccc4c(c3)OCCO4)cc2)n1
fulfilled

Reported inhibition at or above 1%? Cc1ccc(S(=O)(=O)NCC2CCC(C(=O)NCCCN3CCOCC3)CC2)cc1 (stereo unspecified)
not fulfilled

Reported inhibition at or above 1%? CCOC(=O)N1CCN(c2cc3nccnc3cc2F)CC1
fulfilled

Reported inhibition at or above 1%? Cn1c(C(=O)OCC(=O)NCC2CCCO2)cc2sccc21 (stereo unspecified)
fulfilled

Reported inhibition at or above 1%? CC(C)(C)NS(=O)(=O)c1ccc(CCC(=O)O)cc1
not fulfilled

Reported inhibition at or above 1%? CCN1CCN(CCCNC(=O)c2cc3sccc3n2CC)CC1
not fulfilled

Reported inhibition at or above 1%? CC(=O)NC1=NC(=O)/C(=C/N2CCCCC2)S1
fulfilled

Reported inhibition at or above 1%? COc1ccc(C2CC(=O)C3=C(C2)Nc2ccccc2N(C(=O)C2CC2)C3c2cccnc2)cc1OC (stereo unspecified)
fulfilled

Reported inhibition at or above 1%? Cc1ccc(CS(=O)(=O)CCC(=O)N2CCC3(CC2)OCCO3)cc1
fulfilled

Reported inhibition at or above 1%? O=C(CCSc1ccccc1)Nc1ccc(S(=O)(=O)N2CCOCC2)cc1
fulfilled

Reported inhibition at or above 1%? CCOC(=O)CSc1nnc(Cn2c(=O)sc3ccccc32)n1C
not fulfilled

Reported inhibition at or above 1%? COc1ccccc1Cn1nnc2c(=O)[nH]c(C3CCN(C(=O)c4ccccc4Cl)CC3)nc21
not fulfilled

Reported inhibition at or above 1%? O=S(=O)(Nc1cccnc1)c1cc(Cl)ccc1Cl
not fulfilled

Reported inhibition at or above 1%? CCCC(C)(COC(N)=O)COC(=O)NC(C)C (stereo unspecified)
not fulfilled

Reported inhibition at or above 1%? COc1ccccc1Nc1ncnc2c1cnn2-c1cccc(C)c1
not fulfilled

Reported inhibition at or above 1%? Cc1cc(C(=O)Nc2c(C)n(C)n(-c3ccccc3)c2=O)c(C)o1
not fulfilled

Reported inhibition at or above 1%? COc1cccc(-n2c(SCC(=O)N3CCCC3)nc3c([nH]c4ccccc43)c2=O)c1
not fulfilled

Reported inhibition at or above 1%? CC1CCc2c(sc(N)c2C(N)=O)C1 (stereo unspecified)
not fulfilled

Reported inhibition at or above 1%? CCN1CCN(c2nc3c(C)cccn3c(=O)c2/C=C(\C#N)S(=O)(=O)c2ccccc2)CC1
not fulfilled

Reported inhibition at or above 1%? CCOC(=O)c1c(C)oc2ccc(OCC(=O)N(CC)CC)cc12
fulfilled

Reported inhibition at or above 1%? O=C(CSc1nc2ncccc2[nH]1)Nc1ccc2c(c1)OCCO2
not fulfilled

Reported inhibition at or above 1%? COc1ccc2[nH]c(=O)c(CN(CC3CCCO3)C(=O)Nc3ccc(F)cc3)cc2c1 (stereo unspecified)
not fulfilled

Reported inhibition at or above 1%? O=C(CN(Cc1ccc(F)cc1)C(=O)Cn1nnc2ccccc21)NCC1CCCO1 (stereo unspecified)
not fulfilled

###

Please go through the items and note down their inhibition.
- system_under_test: Pantothenate synthetase (Mycobacterium tuberculosis (strain ATCC 25618 / H37Rv)) (UniProt P9WIL5)
- test_description: Coupled enzyme confirmation of inhibitors against recombinant Mtb PanC (AID 375);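 also: 0% = full reaction with vehicle and 100% = no enzyme background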
- test_context: coupled enzyme assay; at 10 µM, hits give high values
Entry rule: numbers only, all in %.

Need inhibition of Cc1cc(C)cc(N2CCCn3c2nc2c3c(=O)n(CCN3CCOCC3)c(=O)n2C)c1 , thanks.
7

Need inhibition of O=C(OCc1ccc2c(c1)OCO2)c1ccc(S(=O)(=O)N2CCCCC2)cc1 , thanks.
0

Need inhibition of CCCCn1c(CN2CCN(CCO)CC2)nc2ccccc21 , thanks.
0

Need inhibition of CC(NC(=O)CSc1n[nH]c(=O)n1C1CC1)C12CC3CC(CC(C3)C1)C2 (stereo unspecified) , thanks.
3

Need inhibition of O=C(Nc1ccc2c(c1)OCCO2)c1cnc2n(c1=O)CCS2 , thanks.
0

Need inhibition of O=C(Nc1ccccc1N1CCCCC1)c1ncoc1-c1ccc(F)cc1 , thanks.
1
